TARGET: 5-hydroxytryptamine receptor 5A (Homo sapiens) (UniProt P47898)
Sequence (P47898 whole entry, looked up): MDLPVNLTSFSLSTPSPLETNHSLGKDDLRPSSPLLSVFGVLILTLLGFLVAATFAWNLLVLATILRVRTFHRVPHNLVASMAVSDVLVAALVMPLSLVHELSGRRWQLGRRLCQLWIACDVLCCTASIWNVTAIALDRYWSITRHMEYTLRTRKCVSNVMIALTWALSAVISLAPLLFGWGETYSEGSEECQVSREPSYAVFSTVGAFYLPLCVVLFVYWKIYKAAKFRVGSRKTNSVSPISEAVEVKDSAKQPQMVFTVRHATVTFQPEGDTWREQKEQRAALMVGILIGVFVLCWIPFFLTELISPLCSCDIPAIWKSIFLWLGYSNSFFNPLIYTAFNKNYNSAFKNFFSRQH
TEST: activation of human 5-HT5A receptor – cell-based, luminescence, confirmation (AID 504915);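 also: 0% = cells with vehicle only and 100% = full reference agonist response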
CONDITION SUMMARY: HTR5A agonist cell assay, at 9.3 µM, active compounds read high
The other results are listed elsewhere or left out.
RECORDED METRIC: activation (%)
Write the value in % as a bare number.

// known answers, use as guide
>>> observed_measurement("COc1ccccc1S(=O)(=O)NCc1ccc(C(=O)N(C)Cc2ccc(F)cc2)cc1")
-2.33
>>> observed_measurement("CC(C)CC(=O)N/C(N)=N/c1nc2ccccc2s1")
-0.51
>>> observed_measurement("Cc1cccc2sc(N(CCCN(C)C)C(=O)CCS(=O)(=O)c3ccccc3)nc12")
5.39
>>> observed_measurement("COc1cc2c(-c3ccc4c(c3)OCO4)c(-c3ccsc3)oc(=O)c2cc1OC")
-0.88
>>> observed_measurement("COc1ccc(C(=O)O/N=C(\\N)Cc2ccc(Cl)cc2Cl)cc1OC")
10.9

QUERY: Entry under review: COc1ccc2[nH]cc(CCN3C(=O)c4ccc(C(=O)O)cc4C3=O)c2c1 . Reported activation?
RESULT: -2.36

QUERY: Entry under review: C/C(=N\NC(=O)CNc1cccc2ccccc12)c1ccc(Br)s1 . Reported activation?
RESULT: 1.77

QUERY: Entry under review: CC(=O)N1CCN(c2ccccc2NC(=S)NC(=O)c2cc3ccccc3o2)CC1 . Reported activation?
RESULT: 4.36

QUERY: Entry under review: COc1cccc(OCC(=O)Nc2ccccc2C(N)=O)c1 . Reported activation?
RESULT: 26.9

QUERY: Entry under review: CC(=O)COc1ccc2c(-c3ccccc3)cc(=O)oc2c1 . Reported activation?
RESULT: 4.18

QUERY: Entry under review: CNc1nnc(-c2ccco2)s1 . Reported activation?
RESULT: 0.94

----------
Below: a set of entries, each annotated with reported activation.
TARGET: 5-hydroxytryptamine receptor 5A (Homo sapiens) (UniProt P47898)
TEST: activation of human 5-HT5A receptor – cell-based, luminescence, confirmation (AID 504915);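 also: 0% = cells with vehicle only and 100% = full reference agonist response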
CONDITION SUMMARY: HTR5A agonist cell assay, at 9.3 µM, active compounds read high
The other results are listed elsewhere or left out. Calls of active or inactive are those of the source. No stated cut-off is given here; in the data, active means activation above about 17%; inactive means the rest.

// known answers, use as guide
>>> observed_measurement("c1ccc(-n2nc3ccccc3n2)cc1")
"1.33% (inactive)"
>>> observed_measurement("CC(C)OC(=O)c1c(NC(=O)c2ccco2)sc2c1CCCC2")
"0.39% (inactive)"
>>> observed_measurement("CC(=O)c1c(C)[nH]c(C(=O)OCC(=O)Nc2c(C)cccc2C)c1C")
"1.01% (inactive)"

QUERY: I'm curious: which activation was measured for COC(=O)c1cc(C(=O)OCC(=O)Nc2cc(C)on2)cc([N+](=O)[O-])c1 tested on 5-hydroxytryptamine receptor 5A (Homo sapiens) (UniProt P47898)?
RESULT: 1.23% (inactive)

QUERY: I'm curious: which activation was measured for O=C(OC12CC3CC(CC(C3)C1)C2)c1ccc(NCc2cc(O)ccc2O)cc1 tested on 5-hydroxytryptamine receptor 5A (Homo sapiens) (UniProt P47898)?
RESULT: 7.13% (inactive)

QUERY: I'm curious: which activation was measured for CCOc1ccc(NC(=O)Nc2cc(C)on2)cc1 tested on 5-hydroxytryptamine receptor 5A (Homo sapiens) (UniProt P47898)?
RESULT: -2.78% (inactive)

QUERY: I'm curious: which activation was measured for Cc1ccc(CN2CCN(Cc3ccc(OCCO)cc3)CC2CCO)o1 (stereo unspecified) tested on 5-hydroxytryptamine receptor 5A (Homo sapiens) (UniProt P47898)?
RESULT: 2.89% (inactive)

QUERY: I'm curious: which activation was measured for COc1ccc(/C=C(\C#N)c2c[nH]c3ccccc23)cc1 tested on 5-hydroxytryptamine receptor 5A (Homo sapiens) (UniProt P47898)?
RESULT: 0.48% (inactive)

QUERY: I'm curious: which activation was measured for O=C(Nc1ccc(C(=O)N2CCOCC2)cc1)Nc1cccc(C(F)(F)F)c1 tested on 5-hydroxytryptamine receptor 5A (Homo sapiens) (UniProt P47898)?
RESULT: 43.1% (active)

QUERY: I'm curious: which activation was measured for Cc1ccc(-c2csc(SCC(=O)Nc3cc(C)on3)n2)cc1 tested on 5-hydroxytryptamine receptor 5A (Homo sapiens) (UniProt P47898)?
RESULT: 2.91% (inactive)

QUERY: I'm curious: which activation was measured for O=C(CNCc1ccco1)Nc1cc(S(=O)(=O)N2CCOCC2)ccc1N1CCCC1 tested on 5-hydroxytryptamine receptor 5A (Homo sapiens) (UniProt P47898)?
RESULT: -0.44% (inactive)

----------
TARGET: 5-hydroxytryptamine receptor 5A (Homo sapiens)
TEST: activation of human 5-HT5A receptor – cell-based, luminescence, confirmation (AID 504915);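 also: 0% = cells with vehicle only and 100% = full reference agonist response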
CONDITION SUMMARY: HTR5A agonist cell assay, at 9.3 µM, active compounds read high
Some of the results follow.
Below: a set of entries, each annotated with reported activation.
Write the value in % as a bare number.

>>> observed_measurement("Cc1ccc(CCC(=O)Nc2ncc(Cc3cc(Cl)ccc3Cl)s2)o1")
29.1
>>> observed_measurement("O=C(CC1Nc2ccccc2NC1=O)Nc1ccccc1 (stereo not drawn)")
3.07

// next entry
QUERY: Entry under review: Cc1oc2c(F)c(F)c(F)c(F)c2c1S(=O)(=O)Nc1cccc(C(F)(F)F)c1 . Reported activation?
RESULT: -4.5

----------
TARGET: 5-hydroxytryptamine receptor 5A (Homo sapiens) (UniProt P47898)
TEST: activation of human 5-HT5A receptor – cell-based, luminescence, confirmation (AID 504915);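 also: 0% = cells with vehicle only and 100% = full reference agonist response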
CONDITION SUMMARY: HTR5A agonist cell assay, at 9.3 µM, active compounds read high
Some of the results follow.
Below: a set of entries, each annotated with reported activation.
Write the value in % as a bare number.

// known answers, use as guide
>>> observed_measurement("Cc1c(C(=O)OCC(=O)N2CCCC2=O)oc2ccccc12")
3.43
>>> observed_measurement("COc1ccc(-c2ocnc2C(=O)Nc2ccc3c(c2)CCC3)cc1")
-0.96
>>> observed_measurement("CC(NC(=O)c1cc(-c2ccccc2)on1)c1ccccc1 (stereo unspecified)")
-0.01
>>> observed_measurement("COC(=O)c1cc(S(=O)(=O)N2CCN(c3cc(C)ccc3C)CC2)c[nH]1")
0.19
>>> observed_measurement("CC1(C)C2CCC1(CS(=O)(=O)NCCc1c[nH]c3ccccc13)C(=O)C2 (stereo unspecified)")
35.4

// next entry
QUERY: Entry under review: O=C(CC(O)(C(F)(F)F)C(F)(F)F)Nc1ccc(Cl)c(Cl)c1 . Reported activation?
RESULT: -1.59

Attribution: PubChem BioAssay AID504915
